# tested on: Human C3 (Complement tech cat #A113c) (human, UniProt P01024 23-1663)
# Sequence (P01024 23-1663 limits assumed): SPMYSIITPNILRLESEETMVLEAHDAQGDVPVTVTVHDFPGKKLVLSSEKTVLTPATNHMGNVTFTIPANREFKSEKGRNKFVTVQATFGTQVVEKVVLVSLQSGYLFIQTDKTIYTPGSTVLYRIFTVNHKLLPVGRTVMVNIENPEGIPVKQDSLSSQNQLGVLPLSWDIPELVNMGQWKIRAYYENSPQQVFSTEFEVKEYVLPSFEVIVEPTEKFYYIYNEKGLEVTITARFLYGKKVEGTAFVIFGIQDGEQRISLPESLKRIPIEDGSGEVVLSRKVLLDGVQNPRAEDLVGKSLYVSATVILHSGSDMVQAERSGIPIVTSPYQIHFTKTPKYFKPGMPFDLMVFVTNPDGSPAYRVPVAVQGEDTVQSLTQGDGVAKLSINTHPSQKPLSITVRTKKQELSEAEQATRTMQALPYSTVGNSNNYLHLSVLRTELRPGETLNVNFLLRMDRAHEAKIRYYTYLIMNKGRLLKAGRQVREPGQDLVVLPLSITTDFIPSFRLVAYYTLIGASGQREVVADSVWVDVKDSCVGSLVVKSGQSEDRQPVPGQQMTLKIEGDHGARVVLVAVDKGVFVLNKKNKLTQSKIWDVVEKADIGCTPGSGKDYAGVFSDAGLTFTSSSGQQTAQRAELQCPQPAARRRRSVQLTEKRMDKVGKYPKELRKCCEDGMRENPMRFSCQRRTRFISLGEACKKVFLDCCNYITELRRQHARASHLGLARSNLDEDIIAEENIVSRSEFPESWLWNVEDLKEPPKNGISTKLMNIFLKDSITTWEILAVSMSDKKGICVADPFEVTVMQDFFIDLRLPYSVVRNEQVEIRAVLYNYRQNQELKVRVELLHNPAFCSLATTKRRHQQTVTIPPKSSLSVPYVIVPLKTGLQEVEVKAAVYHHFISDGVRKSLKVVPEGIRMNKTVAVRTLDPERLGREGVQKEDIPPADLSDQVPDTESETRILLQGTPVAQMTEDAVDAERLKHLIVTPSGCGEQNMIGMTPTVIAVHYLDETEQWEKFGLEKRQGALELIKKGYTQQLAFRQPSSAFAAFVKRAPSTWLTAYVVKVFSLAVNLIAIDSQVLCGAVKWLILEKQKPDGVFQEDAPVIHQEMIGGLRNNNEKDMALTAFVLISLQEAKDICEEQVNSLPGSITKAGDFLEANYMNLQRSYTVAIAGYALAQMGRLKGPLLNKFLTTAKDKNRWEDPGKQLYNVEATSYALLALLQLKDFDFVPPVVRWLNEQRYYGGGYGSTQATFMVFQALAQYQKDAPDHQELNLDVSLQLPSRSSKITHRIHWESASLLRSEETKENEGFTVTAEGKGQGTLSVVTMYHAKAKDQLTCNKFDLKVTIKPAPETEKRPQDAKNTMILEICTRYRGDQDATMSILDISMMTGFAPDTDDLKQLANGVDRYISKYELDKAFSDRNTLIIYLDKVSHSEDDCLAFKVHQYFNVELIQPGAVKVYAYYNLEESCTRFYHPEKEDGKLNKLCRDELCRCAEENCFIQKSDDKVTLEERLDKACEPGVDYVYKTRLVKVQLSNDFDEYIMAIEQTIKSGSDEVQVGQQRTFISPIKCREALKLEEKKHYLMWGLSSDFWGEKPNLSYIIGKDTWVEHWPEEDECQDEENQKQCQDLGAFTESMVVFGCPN
# test description: cell-based or functional assay
Starred links: 1 amine or outer side, 2 acyl side, 3 side chain; linkers in the order of their positions; H or OH if unused. Positions of bridges follow the written chain, without caps; N, C: chain ends. Non-standard residues stand in square brackets, D forms with d. Groups on a side chain read outwards from the residue. *: point of attachment. (Piperazine-1-yl)‑acetyl = piperazin-1-yl-acetyl spacer, O=C(CN1CCN([*:1])CC1)[*:2]; Trp(1-Me) = Cn1cc(C[C@H](N)C(=O)O)c2ccccc21; C18 diacid = O=C(O)CCCCCCCCCCCCCCCCC(=O)*; C16 diacid = O=C(O)CCCCCCCCCCCCCCC(=O)*; γGlu = O=C(O)[C@H](CCC(=O)[*:2])N[*:1]; AEEA = NCCOCCOCC(=O)O; Sar = CNCC(=O)O
// reported inhibition of hemolysis IC50 per item
reported metric: inhibition of hemolysis IC50

| binder | observed result |
| --- | --- |
| Ac-FCIWQDWGEHRCT-NH2 (disulfide 2-12; SMILES CC[C@H](C)[C@@H]1NC(=O)[C@@H](NC(=O)[C@H](Cc2ccccc2)NC(C)=O)CSSC[C@@H](C(=O)N[C@H](C(N)=O)[C@@H](C)O)NC(=O)[C@H](CCCNC(=N)N)NC(=O)[C@H](Cc2c[nH]cn2)NC(=O)[C@H](CCC(=O)O)NC(=O)CNC(=O)[C@H](Cc2c[nH]c3ccccc23)NC(=O)[C@H](CC(=O)O)NC(=O)[C@H](CCC(N)=O)NC(=O)[C@H](Cc2c[nH]c3ccccc23)NC1=O) [Compound 23] | < 100 nM |
| Ac-ICIWQDWGEHRCTEGK([AEEA-AEEA-(Piperazine-1-yl)‑acetyl-C16 diacid])-NH2 (disulfide 2-12) [Compound 95] | < 500 nM |
| Ac-SEYCI[Trp(1-Me)]QDWGEHRC[Sar]EGEK([γGlu-Lys-γGlu-C18 diacid])-NH2 (disulfide 4-14) [Compound 116] | < 500 nM |
| Ac-SEYCI[Trp(1-Me)]QDWGEHRC[Sar]EGE-{AEEA-AEEA-K(γGlu-Gly-γGlu-17-carboxy-heptadecanoyl)-NH2} (disulfide 4-14) [Compound 117] | < 250 nM |
| Ac-ICIWQEWGEHRCT-NH2 (disulfide 2-12; SMILES CC[C@H](C)[C@H](NC(C)=O)C(=O)N[C@H]1CSSC[C@@H](C(=O)N[C@H](C(N)=O)[C@@H](C)O)NC(=O)[C@H](CCCNC(=N)N)NC(=O)[C@H](Cc2c[nH]cn2)NC(=O)[C@H](CCC(=O)O)NC(=O)CNC(=O)[C@H](Cc2c[nH]c3ccccc23)NC(=O)[C@H](CCC(=O)O)NC(=O)[C@H](CCC(N)=O)NC(=O)[C@H](Cc2c[nH]c3ccccc23)NC(=O)[C@H]([C@@H](C)CC)NC1=O) [Compound 16] | < 100 nM |
| Ac-SE[Sar]CI[Trp(1-Me)]QDWGEHRC[Sar]EA-NH2 (disulfide 4-14; SMILES CC[C@H](C)[C@@H]1NC(=O)[C@@H](NC(=O)CN(C)C(=O)[C@H](CCC(=O)O)NC(=O)[C@H](CO)NC(C)=O)CSSC[C@@H](C(=O)N(C)CC(=O)N[C@@H](CCC(=O)O)C(=O)N[C@@H](C)C(N)=O)NC(=O)[C@H](CCCNC(=N)N)NC(=O)[C@H](Cc2c[nH]cn2)NC(=O)[C@H](CCC(=O)O)NC(=O)CNC(=O)[C@H](Cc2c[nH]c3ccccc23)NC(=O)[C@H](CC(=O)O)NC(=O)[C@H](CCC(N)=O)NC(=O)[C@H](Cc2cn(C)c3ccccc23)NC1=O) [Compound 81] | < 100 nM |
